Hi there, I'd appreciate the recorded pIC50 for every entry that follows.
- SYSTEM_NAME: α-glucosidase
- ASSAY_EXPLANATION: α-glucosidase inhibitory activity (p-nitrophenyl-α-D-glucopyranoside method)
- Type: biochemical
- SETTINGS: mean ± SEM of three parallel measurements; read-out: antidiabetic inhibition activity IC50, α-glucosidase
Answers are plain numbers, as −log10 of the molar value.

CC(=NNC(=O)c1ccc(Br)cc1)c1ccc(S(=O)(=O)NC(=O)NC2CCCCC2)cc1 [compound 5] = 4.11
CC(=NNC(=O)c1cccc(Cl)c1)c1ccc(S(=O)(=O)NC(=O)NC2CCCCC2)cc1 [compound 2] = 4.16
COc1ccc(C(=O)N/N=C(\C)c2ccc(S(=O)(=O)NC(=O)NC3CCCCC3)cc2)cc1 [compound 8] = 4.42
C/C(=N\NC(=O)c1ccccc1)c1ccc(S(=O)(=O)NC(=O)NC2CCCCC2)cc1 [compound 1] = 3.97
CC(=NNC(=O)c1ccc([N+](=O)[O-])cc1)c1ccc(S(=O)(=O)NC(=O)NC2CCCCC2)cc1 [compound 10] = 4.39

Look up pIC50 for the entries below, preserving their order.
1. CC(=NNC(=O)c1ccccc1[N+](=O)[O-])c1ccc(S(=O)(=O)NC(=O)NC2CCCCC2)cc1 [compound 13]
2. CC(=NNC(=O)c1ccc(Cl)cc1)c1ccc(S(=O)(=O)NC(=O)NC2CCCCC2)cc1 [compound 14]
3. CC(=NNC(=O)c1ccc(F)cc1)c1ccc(S(=O)(=O)NC(=O)NC2CCCCC2)cc1 [compound 3]

1: 4.18; 2: 4.28; 3: 4.34

---

- SYSTEM_NAME: α-glucosidase
- ASSAY_EXPLANATION: α-glucosidase inhibitory activity (p-nitrophenyl-α-D-glucopyranoside method)
- Format: biochemical
- SETTINGS: no unit in Table 5; same values as Table 2 (there μM); read-out: IC50 value (α-glucosidase), as repeated in docking Table 5
READOUT_NAME: IC50
Please state the value followed by its unit.

Look up IC50 for the entries below, preserving their order.
1. CC(=NNC(=O)c1ccc(C)cc1)c1ccc(S(=O)(=O)NC(=O)NC2CCCCC2)cc1
2. CC(=NNC(=O)c1ccc(I)cc1)c1ccc(S(=O)(=O)NC(=O)NC2CCCCC2)cc1
3. COc1ccc(C(=O)N/N=C(\C)c2ccc(S(=O)(=O)NC(=O)NC3CCCCC3)cc2)cc1
4. C/C(=N\NC(=O)c1cccc2ccccc12)c1ccc(S(=O)(=O)NC(=O)NC2CCCCC2)cc1

["46.1 µM", "85 µM", "38.1 µM", "57.1 µM"]

---

- SYSTEM_NAME: α-glucosidase
- ASSAY_EXPLANATION: α-glucosidase inhibitory activity (p-nitrophenyl-α-D-glucopyranoside method)
- Format: biochemical
- SETTINGS: no unit in Table 5; same values as Table 2 (there μM); read-out: IC50 value (α-glucosidase), as repeated in docking Table 5
Hi there, I'd appreciate the recorded IC50 for every entry that follows.
Please state the value followed by its unit.

Solved cases below.
CC(=NNC(=O)c1cccc(Cl)c1)c1ccc(S(=O)(=O)NC(=O)NC2CCCCC2)cc1 [compound 2] = 68.8 µM
CC(=NNC(=O)c1ccc(Cl)cc1)c1ccc(S(=O)(=O)NC(=O)NC2CCCCC2)cc1 [compound 14] = 52.2 µM
CC(=NNC(=O)c1ccc([N+](=O)[O-])cc1)c1ccc(S(=O)(=O)NC(=O)NC2CCCCC2)cc1 [compound 10] = 40.4 µM

Look up IC50 for the entries below, preserving their order.
1. C/C(=N\NC(=O)c1ccccc1)c1ccc(S(=O)(=O)NC(=O)NC2CCCCC2)cc1 [compound 1]
2. CC(=NNC(=O)c1ccccc1[N+](=O)[O-])c1ccc(S(=O)(=O)NC(=O)NC2CCCCC2)cc1 [compound 13]
3. CC(=NNC(=O)c1ccc(Br)cc1)c1ccc(S(=O)(=O)NC(=O)NC2CCCCC2)cc1 [compound 5]
4. CC(=NNC(=O)c1ccc(F)cc1)c1ccc(S(=O)(=O)NC(=O)NC2CCCCC2)cc1 [compound 3]

["108 µM", "66.4 µM", "77.4 µM", "45.3 µM"]

IC50 lookup needed for CC(=NNC(=O)c1cccc([N+](=O)[O-])c1)c1ccc(S(=O)(=O)NC(=O)NC2CCCCC2)cc1 [compound 9] , thanks.
61.2 µM

Data origin: paper PMC12489694
